The measurements presented in this section are drawn from patent EP0364819A2.

# Assay target: membrane receptors of human breast cancer cells (Homo sapiens)
# Construct: human prostate and breast cancer cell membranes; endogenous in cells
# Sequence (P30968 1-328): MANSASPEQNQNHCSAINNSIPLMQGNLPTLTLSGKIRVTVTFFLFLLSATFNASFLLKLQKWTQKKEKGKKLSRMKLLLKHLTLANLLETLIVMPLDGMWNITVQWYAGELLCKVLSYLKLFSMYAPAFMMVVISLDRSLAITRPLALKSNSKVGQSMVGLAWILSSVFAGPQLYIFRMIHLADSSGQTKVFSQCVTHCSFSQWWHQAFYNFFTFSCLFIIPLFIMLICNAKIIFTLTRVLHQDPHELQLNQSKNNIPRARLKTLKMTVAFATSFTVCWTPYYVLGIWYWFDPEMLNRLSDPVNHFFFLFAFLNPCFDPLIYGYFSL
# Protocol details: Receptor binding to human breast cancer cell membranes with 125I-labeled [D-Trp6]LHRH
# Recorded conditions: Table 1, agonistic analogues, high affinity binding sites, ¹²⁵l-labeled [D-Trp⁶]LHRH
satisfied if Binding affinity, Ka1, for membrane receptors of cancer cells is below 4 nM⁻¹. not satisfied if not; exact matches included in not satisfied.

input: hey, is Binding affinity, Ka1, for membrane receptors of cancer cells for pGlu-His-Trp-Ser-Tyr-D-Lys[(Cu⁺⁺)(PEN) ₂(A₂pr)]-Leu-Arg-Pro-Gly-NH₂ [Example XXI] lower than 4 nM⁻¹ or not?
output: not satisfied

input: hey, is Binding affinity, Ka1, for membrane receptors of cancer cells for pGlu-His-Trp-Ser-Tyr-D-Lys[Cu⁺⁺) POL)₂(DL-A₂pr)]-Leu-Arg-Pro-Gly-NH₂ [XVIII] lower than 4 nM⁻¹ or not?
output: satisfied

input: hey, is Binding affinity, Ka1, for membrane receptors of cancer cells for pGlu-His-Trp-Ser-Tyr-D-Lys[(Cu⁺⁺)(FUR)₂(DL-A₂pr)]-Leu-Arg-Pro-Gly-NH₂ [XVII] lower than 4 nM⁻¹ or not?
output: satisfied

input: hey, is Binding affinity, Ka1, for membrane receptors of cancer cells for pGlu-His-Trp-Ser-Tyr-D-Lys[(PtCl₂)(DL-A₂pr)]-Leu-Arg-Pro-Gly-NH₂ [Example III] lower than 4 nM⁻¹ or not?
output: satisfied

input: hey, is Binding affinity, Ka1, for membrane receptors of cancer cells for pGlu-His-Trp-Ser-Tyr-D-Lys[(Cu⁺⁺)(SAL)₂(DL-A₂bu)]-Leu-Arg-Pro-Gly-NH₂ [XIV] lower than 4 nM⁻¹ or not?
output: satisfied

input: hey, is Binding affinity, Ka1, for membrane receptors of cancer cells for pGlu-His-Trp-Ser-Tyr-D-Lys[(Cu⁺⁺)(POLP)₂(DL-A₂bu)]-Leu-Arg-Pro-Gly-NH₂ [Example XVI] lower than 4 nM⁻¹ or not?
output: not satisfied

input: hey, is Binding affinity, Ka1, for membrane receptors of cancer cells for pGlu-His-Trp-Ser-Tyr-D-Lys[(Cu⁺⁺)(POL)₂(DL-A₂bu)]-Leu-Arg-Pro-Gly-NH₂ [XXV] lower than 4 nM⁻¹ or not?
output: satisfied
